settings: 303.2 K; Liquid; Alternating current cell with electrodes
valueType: electrical conductivity (S/m)

(A) CCn1cc[n+](C)c1.F[B-](F)(F)F [1-ethyl-3-methylimidazolium tetrafluoroborate]
(B) CCOS(=O)(=O)[O-].CCn1cc[n+](C)c1 [1-ethyl-3-methylimidazolium ethyl sulfate]
(C) CCn1cc[n+](C)c1.COCCOCCOS(=O)(=O)[O-] [1-ethyl-3-methylimidazolium 2-(2-methoxyethoxy) ethylsulfate]
(D) CCn1cc[n+](C)c1.O=S(=O)([O-])C(F)(F)F [1-ethyl-3-methylimidazolium trifluoromethanesulfonate]
Ordering criterion: electrical conductivity; begin with the maximum. # answer = labels listed in requested order A, D, B, C
(A: 1.79 S/m, D: 1.16 S/m, B: 0.493 S/m, C: 0.194 S/m)
